Values from PubChem BioAssay (Tox21)

assay: p53 small molecule agonists, cell-based qHTS assay with human liver microsomes: qHTS cell viability counter screen (AID 1963579); details: p53RE-bla HCT-116 viability, ATP luminescence, 16 h, HLM; series mostly up to 66 µM; note: nearly all actives have a fitted effect of over 45% in size
Records with an inconclusive call do not appear. Active and inactive are the calls of the source. Calls come from the whole dose curve.
Pick one and only one: 1 for active, -1 for inactive

### Prompt Call for entry CC[C@@H](CO)NC(=O)[C@@H]1C=C2c3cccc4c3c(cn4C)C[C@H]2N(C)C1 :
### Response -1

### Prompt Entry C=C(C)[C@H]1CN[C@H](C(=O)O)[C@H]1CC(=O)O : call = ?
### Response -1

### Prompt Could you please tell me the result logged for CC(O)C(=O)[O][Hg][c]1ccccc1 (configuration not stated) in this assay?
### Response 1

### Prompt Tell me the recorded outcome of this test for Cc1cc(Cl)ccc1O[C@H](C)C(=O)O .
### Response -1

### Prompt # fetch the recorded call for CC(C)[N+](=O)[O-] here
### Response -1

### Prompt GET /call?item= CC[C@H](C)[C@H]1O[C@]2(C=C[C@@H]1C)C[C@@H]1C[C@@H](C/C=C(\C)[C@@H](O[C@H]3C[C@H](OC)[C@@H](O[C@H]4C[C@H](OC)[C@@H](O)[C@H](C)O4)[C@H](C)O3)[C@@H](C)/C=C/C=C3\CO[C@@H]4[C@H](O)C(C)=C[C@@H](C(=O)O1)[C@]34O)O2 returns the recorded outcome of this test.
### Response -1

### Prompt Which outcome was entered for the compound C=CCOC(=O)c1ccccc1N in this test?
### Response -1

### Prompt I would be grateful if you could indicate the recorded call for Cc1nnc2n1-c1sc(CCc3ccc(CC(C)C)cc3)cc1C(c1ccccc1Cl)=NC2C (configuration not stated) .
### Response -1

### Prompt Which outcome did this test record for the compound C=CC(=O)[O][Sn]([CH2]CCC)([CH2]CCC)[CH2]CCC ?
### Response 1

### Prompt Which outcome did this test record for the compound O=C1CN=C(c2ccccc2)c2cc([N+](=O)[O-])ccc2N1 ?
### Response -1

### Prompt Look up the recorded call for CCOP(=S)(OCC)Oc1ccc(Cl)cc1Cl in this test.
### Response 1

### Prompt Fill in: this test's call for CCCCCl is ___
### Response -1

### Prompt Fill in: this test's call for CNC(=O)Oc1cccc(C(C)C)c1 is ___
### Response -1

### Prompt Record lookup: outcome of this test for C#CCC1=C(C)C(OC(=O)C2C(C=C(C)C)C2(C)C)CC1=O (configuration not stated) ?
### Response -1

### Prompt Which outcome did this test record for the compound O=C(O)c1c(Cl)ccc2cc(Cl)cnc12 ?
### Response -1

### Prompt // param item: CCOP(=S)(OCC)SCn1nnc2ccccc2c1=O ; yields the recorded call
### Response -1

### Prompt Per the records of this test, what outcome belongs to CCC(=O)C(CCN(C)C)(c1ccccc1)c1ccccc1 ?
### Response -1

### Prompt Recorded call for CCCCOP(=O)(O)OCCCC ?
### Response -1

### Prompt What did this assay record as the result for CCCCCCCCP(=O)(O)O ?
### Response -1

### Prompt Dear colleague, could you share the recorded outcome for CCCCCCCCCC(=O)O[C@H]1CC[C@H]2[C@@H]3CCC4=CC(=O)CC[C@@H]4[C@H]3CC[C@]12C when you have a moment?
### Response -1

### Prompt Hi team, can someone confirm the assay call for CCOC(=O)NC(C)(C)Cc1ccc(Cl)cc1 ?
### Response -1

### Prompt Recorded call for CN(C)CCCCCCN(C)C ?
### Response -1

### Prompt Write down the call the test reported for this compound. Item: CN1C[C@H](CNC(=O)OCc2ccccc2)C[C@@H]2c3cccc4c3c(cn4C)C[C@H]21
### Response -1

### Prompt How did this test come out for CCSC(=O)Cl ?
### Response -1

### Prompt State the result this test recorded for O.O.O.O.O.O.O.O=S(=O)([O-])[O-].[Co+2] .
### Response -1

### Prompt Name the outcome recorded for CCCCCCC[CH2][Sn]([Cl])([Cl])[CH2]CCCCCCC in the assay.
### Response -1

### Prompt How did this test come out for O=C(c1ccccc1)C(Cl)Cl ?
### Response -1

### Prompt Lab log entry: CCCOCC(=Nc1ccc(Cl)cc1C(F)(F)F)n1ccnc1 — outcome as called in the assay?
### Response -1

### Prompt Returns: the outcome recorded for Fc1ccc(C2(Cn3cncn3)OC2c2ccccc2Cl)cc1 (configuration not stated) in this assay.
### Response -1

### Prompt // return assay outcome for CCOP(=S)(S)OCC
### Response -1

### Prompt Hello, I am checking results. What call was entered for COc1ccc(C=O)cc1O ?
### Response -1

### Prompt # lookup: test call for NNC(=O)c1cccnc1
### Response -1

### Prompt // outcome(item) with item = Cc1nnc2n1-c1sc(CCC(=O)N3CCOCC3)cc1C(c1ccccc1Cl)=NC2
### Response -1

### Prompt Can you look up the reported call for CCOC(=O)NC(=S)Nc1ccccc1NC(=S)NC(=O)OCC for me?
### Response -1

### Prompt Please let me know the test result on file for COCc1cnc(C2=NC(C)(C(C)C)C(=O)N2)c(C(=O)O)c1 (configuration not stated) .
### Response -1

### Prompt Short answer needed: outcome of this test for CC(=O)O[C@H]1CC[C@@]2(C)C(=CC[C@@H]3[C@@H]2CC[C@]2(C)C(=O)CC[C@@H]32)C1 ?
### Response -1

### Prompt Which outcome did this test record for the compound CCCCC(CC)COC(=O)OOC(C)(C)C (configuration not stated) ?
### Response -1

### Prompt Called result for O=S(=O)(Cl)c1ccccc1
### Response -1

### Prompt Recorded test call requested for [O-][Cl+3]([O-])([O-])O
### Response -1

### Prompt # outcome recorded in this test, key = C=CC(=O)OCCCCOC(=O)C=C
### Response -1

### Prompt Hi, sorry to bother you, what did the test record for CC(Oc1cccc(Cl)c1)C(=O)O (configuration not stated) ?
### Response -1

### Prompt Hi, do you know how c1ccc2c(c1)cc1ccc3cccc4ccc2c1c34 came out in this test?
### Response -1

### Prompt Write down the call the test reported for this compound. Item: OC(c1ccc(Cl)cc1)(c1ccc(Cl)cc1)c1cccnc1
### Response -1

### Prompt Please indicate how the test categorized C[N+](C)(C)CCCl .
### Response -1

### Prompt Each compound tested received a call. Report the one for CC1CCCC1 .
### Response -1

### Prompt Look up the recorded call for COc1cc(OC)nc(NC(=O)NS(=O)(=O)c2ncccc2OCC(F)(F)F)n1 in this test.
### Response -1

### Prompt Per the records of this test, what outcome belongs to N#CN=C1SCCN1Cc1ccc(Cl)nc1 ?
### Response -1

### Prompt Which outcome was entered for the compound CCCCCOC(=O)c1ccccc1C(=O)OCCCCC in this test?
### Response -1

### Prompt # lookup: test call for O=C(NC(O)C(Cl)(Cl)Cl)NC(O)C(Cl)(Cl)Cl (configuration not stated)
### Response -1

### Prompt Please indicate how the test categorized C1CCNCC1 .
### Response -1

### Prompt Please let me know the test result on file for Cc1cc2c3c(c1)C(c1ccccc1)=N[C@@H](NC(=O)c1ccncc1)C(=O)N3CC2 .
### Response -1

### Prompt // outcome(item) with item = C=CC(C)(CCC=C(C)C)OC(=O)c1ccccc1N (configuration not stated)
### Response -1
